- System: MDA-MB-231
- Procedure text: normalised response (% of control), CellTox Green; higher = less cell death (100 = DMSO, 0 = benzethonium chloride kill control)
- Condition parameters: incubation time: 72 h
Reported values of normalised response for individual entries
Form entry: value (%) — number only.

Please review the following examples before continuing.
>  <Compound>
CC(C)C(=O)Nc1ccc([N+](=O)[O-])c(C(F)(F)F)c1 [Flutamide] (1000 nM)

>  <Target or system>
MDA-MB-231

>  <normalised response [%]>
98.5

$$$$
>  <Compound>
COc1cc2c(N3CCN(C(=O)Nc4ccc(OC(C)C)cc4)CC3)ncnc2cc1OCCCN1CCCCC1 [Tandutinib] (10 nM)

>  <Target or system>
MDA-MB-231

>  <normalised response [%]>
99.9

$$$$
>  <Compound>
CO[C@H](C(=O)[C@@H](O)[C@@H](C)O)[C@@H]1Cc2cc3cc(O[C@H]4C[C@@H](O[C@@H]5C[C@@H](O)[C@H](O)[C@@H](C)O5)[C@H](O)[C@@H](C)O4)c(C)c(O)c3c(O)c2C(=O)[C@H]1O[C@H]1C[C@@H](O[C@@H]2C[C@@H](O)[C@@H](O[C@@H]3C[C@](C)(O)[C@H](O)[C@@H](C)O3)[C@@H](C)O2)[C@H](O)[C@@H](C)O1 [Plicamycin] (100 nM)

>  <Target or system>
MDA-MB-231

>  <normalised response [%]>
109

$$$$
>  <Compound>
Cc1cc2c(F)c(Oc3ncnn4cc(OC[C@@H](C)O)c(C)c34)ccc2[nH]1 [Brivanib] (100 nM)

>  <Target or system>
MDA-MB-231

>  <normalised response [%]>
115

$$$$

# context switch: different compound, same normalised response
Name the recorded normalised response for C[C@]12C=CC(=O)C=C1CC[C@@H]1[C@@H]2C(=O)C[C@@]2(C)[C@H]1CC[C@]2(O)C(=O)CO [Prednisone] (10000 nM) .
114

# credit: the supplement of paper PMC4862054
